Target: T1, mouse programmed cell death protein 1 Fc fusion protein (mPD-1-Fc), mPD-1 C60S (aa 25-167) (Mus musculus, UniProt Q02242, stabilised)
T1 construct: not cleaved; source: Expi293F, purified (Protein A, SEC; dimeric fraction); not shown: Fc (human), C-terminal, kept
Test: SPR; Carterra LSA; Fab from the ammonium sulfate precipitate of the culture supernatant immobilised on a NiHC200M chip; hPD-1 (1-1024 nM) or mPD-1-Fc (4-1024 nM) as analyte, fourfold dilution series, no regeneration; HBS-EP pH 7.4, 25 °C; medians over the spots of a construct, KD = koff/kon
Conditions: one partner purified
Kindly supply the reported kon values for the records listed here.
Please answer using the number first and the unit second.

-- ask Recorded kon of toripalimab Fab L.P100F (Fab, V domains shown, as the heavy chain of Sm3; light chain of Sm3 with this change; numbers count from the chain's first residue; source: Brevibacillus, culture supernatant (ammonium sulfate precipitate); not shown: 6xHis, C-terminal, kept; 6xHN, C-terminal, kept) VH: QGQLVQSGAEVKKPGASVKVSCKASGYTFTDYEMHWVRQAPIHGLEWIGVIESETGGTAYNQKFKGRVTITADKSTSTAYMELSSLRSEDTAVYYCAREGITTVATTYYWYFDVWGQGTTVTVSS VL: DVVMTQSPLSLPVTLGQPASISCRSSQSIVHSNGNTYLEWYLQKPGQSPQLLIYKVSNRFSGVPDRFSGSGSGTDFTLKISRVEAEDVGVYYCFQGSHVFLTFGQGTKLEIK , please.
-- reply 9270 M⁻¹ s⁻¹

-- ask Which kon value belongs to toripalimab Fab L.P100L (Fab, V domains shown, as the heavy chain of Sm3; light chain of Sm3 with this change; numbers count from the chain's first residue; source: Brevibacillus, culture supernatant (ammonium sulfate precipitate); not shown: 6xHis, C-terminal, kept; 6xHN, C-terminal, kept) VH: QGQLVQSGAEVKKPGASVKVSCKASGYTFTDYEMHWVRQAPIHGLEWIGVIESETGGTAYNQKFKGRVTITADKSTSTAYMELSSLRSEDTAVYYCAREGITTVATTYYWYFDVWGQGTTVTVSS VL: DVVMTQSPLSLPVTLGQPASISCRSSQSIVHSNGNTYLEWYLQKPGQSPQLLIYKVSNRFSGVPDRFSGSGSGTDFTLKISRVEAEDVGVYYCFQGSHVLLTFGQGTKLEIK ?
-- reply 14700 M⁻¹ s⁻¹

-- ask Suppose we examine the binder toripalimab Fab L.V56Y (Fab, V domains shown, as the heavy chain of Sm3; light chain of Sm3 with this change; numbers count from the chain's first residue; source: Brevibacillus, culture supernatant (ammonium sulfate precipitate); not shown: 6xHis, C-terminal, kept; 6xHN, C-terminal, kept) VH: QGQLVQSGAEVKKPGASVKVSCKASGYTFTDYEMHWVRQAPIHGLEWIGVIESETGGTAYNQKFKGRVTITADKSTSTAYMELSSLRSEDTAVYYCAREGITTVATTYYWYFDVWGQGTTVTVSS VL: DVVMTQSPLSLPVTLGQPASISCRSSQSIVHSNGNTYLEWYLQKPGQSPQLLIYKYSNRFSGVPDRFSGSGSGTDFTLKISRVEAEDVGVYYCFQGSHVPLTFGQGTKLEIK ; what kon value has been reported?
-- reply 35800 M⁻¹ s⁻¹

-- ask // returns reported kon for input toripalimab Fab L.L101Y (Fab, V domains shown, as the heavy chain of Sm3; light chain of Sm3 with this change; numbers count from the chain's first residue; source: Brevibacillus, culture supernatant (ammonium sulfate precipitate); not shown: 6xHis, C-terminal, kept; 6xHN, C-terminal, kept) VH: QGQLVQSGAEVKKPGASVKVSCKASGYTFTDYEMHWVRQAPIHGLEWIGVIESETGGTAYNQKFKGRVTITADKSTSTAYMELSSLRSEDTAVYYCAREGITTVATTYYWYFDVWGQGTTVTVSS VL: DVVMTQSPLSLPVTLGQPASISCRSSQSIVHSNGNTYLEWYLQKPGQSPQLLIYKVSNRFSGVPDRFSGSGSGTDFTLKISRVEAEDVGVYYCFQGSHVPYTFGQGTKLEIK
-- reply 28400 M⁻¹ s⁻¹

-- ask What value of kon has been reported for the following binder? toripalimab Fab H.T107A (Fab, V domains shown, heavy chain of Sm3 with this change; numbers count from the chain's first residue; as the light chain of Sm3; source: Brevibacillus, culture supernatant (ammonium sulfate precipitate); not shown: 6xHis, C-terminal, kept; 6xHN, C-terminal, kept) VH: QGQLVQSGAEVKKPGASVKVSCKASGYTFTDYEMHWVRQAPIHGLEWIGVIESETGGTAYNQKFKGRVTITADKSTSTAYMELSSLRSEDTAVYYCAREGITTVATAYYWYFDVWGQGTTVTVSS VL: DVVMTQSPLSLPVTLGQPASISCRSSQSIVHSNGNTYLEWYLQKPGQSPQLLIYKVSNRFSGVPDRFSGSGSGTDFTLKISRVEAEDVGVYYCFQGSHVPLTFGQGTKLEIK
-- reply 30300 M⁻¹ s⁻¹

-- ask Endpoint output: kon of toripalimab Fab L.P100E (Fab, V domains shown, as the heavy chain of Sm3; light chain of Sm3 with this change; numbers count from the chain's first residue; source: Brevibacillus, culture supernatant (ammonium sulfate precipitate); not shown: 6xHis, C-terminal, kept; 6xHN, C-terminal, kept) VH: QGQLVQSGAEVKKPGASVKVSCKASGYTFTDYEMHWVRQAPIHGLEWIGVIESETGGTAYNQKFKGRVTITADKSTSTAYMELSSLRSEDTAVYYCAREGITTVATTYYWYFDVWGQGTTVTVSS VL: DVVMTQSPLSLPVTLGQPASISCRSSQSIVHSNGNTYLEWYLQKPGQSPQLLIYKVSNRFSGVPDRFSGSGSGTDFTLKISRVEAEDVGVYYCFQGSHVELTFGQGTKLEIK . Value?
-- reply 24800 M⁻¹ s⁻¹

-- ask Need kon of toripalimab Fab L.T102A (Fab, V domains shown, as the heavy chain of Sm3; light chain of Sm3 with this change; numbers count from the chain's first residue; source: Brevibacillus, culture supernatant (ammonium sulfate precipitate); not shown: 6xHis, C-terminal, kept; 6xHN, C-terminal, kept) VH: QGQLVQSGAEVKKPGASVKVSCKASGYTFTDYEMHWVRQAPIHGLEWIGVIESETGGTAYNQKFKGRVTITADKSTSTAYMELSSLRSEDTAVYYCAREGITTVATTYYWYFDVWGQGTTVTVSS VL: DVVMTQSPLSLPVTLGQPASISCRSSQSIVHSNGNTYLEWYLQKPGQSPQLLIYKVSNRFSGVPDRFSGSGSGTDFTLKISRVEAEDVGVYYCFQGSHVPLAFGQGTKLEIK , thanks.
-- reply 34200 M⁻¹ s⁻¹

-- ask Reported kon for toripalimab Fab L.S61A (Fab, V domains shown, as the heavy chain of Sm3; light chain of Sm3 with this change; numbers count from the chain's first residue; source: Brevibacillus, culture supernatant (ammonium sulfate precipitate); not shown: 6xHis, C-terminal, kept; 6xHN, C-terminal, kept) VH: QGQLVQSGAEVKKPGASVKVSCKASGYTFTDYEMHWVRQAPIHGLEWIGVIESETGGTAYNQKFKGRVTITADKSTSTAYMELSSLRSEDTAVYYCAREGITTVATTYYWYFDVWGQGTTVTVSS VL: DVVMTQSPLSLPVTLGQPASISCRSSQSIVHSNGNTYLEWYLQKPGQSPQLLIYKVSNRFAGVPDRFSGSGSGTDFTLKISRVEAEDVGVYYCFQGSHVPLTFGQGTKLEIK : what is it?
-- reply 43400 M⁻¹ s⁻¹

-- ask Name the recorded kon for toripalimab Fab L.K55Y (Fab, V domains shown, as the heavy chain of Sm3; light chain of Sm3 with this change; numbers count from the chain's first residue; source: Brevibacillus, culture supernatant (ammonium sulfate precipitate); not shown: 6xHis, C-terminal, kept; 6xHN, C-terminal, kept) VH: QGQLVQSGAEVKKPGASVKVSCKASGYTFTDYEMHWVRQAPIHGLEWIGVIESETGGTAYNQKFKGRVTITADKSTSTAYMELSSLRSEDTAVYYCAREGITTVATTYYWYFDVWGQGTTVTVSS VL: DVVMTQSPLSLPVTLGQPASISCRSSQSIVHSNGNTYLEWYLQKPGQSPQLLIYYVSNRFSGVPDRFSGSGSGTDFTLKISRVEAEDVGVYYCFQGSHVPLTFGQGTKLEIK .
-- reply 40000 M⁻¹ s⁻¹

-- ask Query (binder): toripalimab Fab L.P100I (Fab, V domains shown, as the heavy chain of Sm3; light chain of Sm3 with this change; numbers count from the chain's first residue; source: Brevibacillus, culture supernatant (ammonium sulfate precipitate); not shown: 6xHis, C-terminal, kept; 6xHN, C-terminal, kept) VH: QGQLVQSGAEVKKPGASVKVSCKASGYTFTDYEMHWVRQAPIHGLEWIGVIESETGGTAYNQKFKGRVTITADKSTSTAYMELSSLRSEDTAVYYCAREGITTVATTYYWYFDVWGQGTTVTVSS VL: DVVMTQSPLSLPVTLGQPASISCRSSQSIVHSNGNTYLEWYLQKPGQSPQLLIYKVSNRFSGVPDRFSGSGSGTDFTLKISRVEAEDVGVYYCFQGSHVILTFGQGTKLEIK ; field requested: kon
-- reply 13900 M⁻¹ s⁻¹
